Reported IC50 values are given for each entry in this list.
Target: NLRP3 inflammasome (Homo sapiens)
Sequence (Q96P20 whole entry): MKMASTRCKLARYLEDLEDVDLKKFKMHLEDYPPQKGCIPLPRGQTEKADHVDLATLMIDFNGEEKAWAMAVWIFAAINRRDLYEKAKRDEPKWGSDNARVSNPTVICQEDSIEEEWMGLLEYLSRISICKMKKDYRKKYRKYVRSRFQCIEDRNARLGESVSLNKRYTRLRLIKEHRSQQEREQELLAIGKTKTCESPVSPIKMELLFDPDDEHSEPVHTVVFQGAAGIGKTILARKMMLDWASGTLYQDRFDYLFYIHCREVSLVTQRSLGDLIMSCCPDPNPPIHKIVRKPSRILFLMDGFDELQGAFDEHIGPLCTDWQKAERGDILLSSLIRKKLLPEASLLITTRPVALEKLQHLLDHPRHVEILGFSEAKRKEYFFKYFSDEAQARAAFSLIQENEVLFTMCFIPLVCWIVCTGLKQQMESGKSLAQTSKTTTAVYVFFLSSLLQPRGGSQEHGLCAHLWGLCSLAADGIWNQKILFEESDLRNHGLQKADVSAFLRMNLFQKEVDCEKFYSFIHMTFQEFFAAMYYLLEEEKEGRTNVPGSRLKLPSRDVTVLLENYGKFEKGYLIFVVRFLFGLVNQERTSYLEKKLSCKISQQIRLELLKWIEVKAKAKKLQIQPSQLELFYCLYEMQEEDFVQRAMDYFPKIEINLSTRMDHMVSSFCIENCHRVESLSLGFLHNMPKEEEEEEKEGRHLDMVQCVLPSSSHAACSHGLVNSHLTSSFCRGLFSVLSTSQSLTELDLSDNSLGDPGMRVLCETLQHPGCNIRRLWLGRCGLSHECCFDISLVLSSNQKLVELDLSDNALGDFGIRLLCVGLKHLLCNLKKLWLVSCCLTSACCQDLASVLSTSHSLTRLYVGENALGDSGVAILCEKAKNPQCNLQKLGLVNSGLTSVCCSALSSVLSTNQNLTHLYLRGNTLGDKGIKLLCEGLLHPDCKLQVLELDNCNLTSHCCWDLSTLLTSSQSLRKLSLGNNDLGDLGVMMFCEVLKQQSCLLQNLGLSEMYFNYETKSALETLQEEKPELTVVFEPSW
Assay: THP-1 ASC-GFP speck assay
Type: cell-based
Set-up: host or cells: THP-1 ASC-GFP cells, PMA-differentiated, LPS-primed, nigericin-stimulated
Conditions: THP-1 ASC-GFP cells, PMA differentiated, LPS primed, 10 μM nigericin; read-out: THP1 ASC Speck IC50
Number only, in µM; omit the unit.

{"compound": "CO[C@H]1CCOc2c([S@@](=O)(=NC(=O)Nc3c4c(cc5c3CCC5)CCC4)NC#N)cnn2C1 (single isomer, unassigned)", "reported_property": "IC50", "reported": 0.61}
{"compound": "CN(C)[C@@H]1COc2c([S@@](=O)(=NC(=O)Nc3c4c(c(F)c5c3CCC5)CCC4)NC#N)cnn2C1", "reported_property": "IC50", "reported": 0.32}
{"compound": "COC1COc2c(S(=O)(=NC(=O)Nc3c4c(cc5c3CCC5)CCC4)NC(C)=O)cnn2C1 (single isomer, unassigned) [Example 115]", "reported_property": "IC50", "reported": 2.5}

Moving on to the next compound.
Query: Quick one: IC50 for COc1cc(C(C)C)c(NC(=O)N=S(N)(=O)c2cnn3c2OCCC3)c(C(C)C)n1 (single isomer, unassigned) [Example 102] ?
Reply: 5.1

Values were extracted from patent US12234245B2.
